viability, T/C listing for selected compounds.
Test system: 889142-216-R-J1-PDC complex spheroid viability;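 further: spheroids exposed to compounds for seven days; 100% = DMSO vehicle control viability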
Protocol: Anticancer human tumor 889142-216-R-J1-PDC patient-derived bladder carcinoma cell line growth inhibition [POLQ]
Stated Conditions: second compound 0.0316 µM; first compound 0.1 µM; stronger effect = lower value
Measure: viability, T/C (%)

Compound	Measure	Readout Units	Measured Result
C#Cc1c(F)ccc2cc(O)cc(-c3ncc4c(N5CC6CCC(C5)N6)nc(OCC56CCCN5CC(F)C6)nc4c3F)c12 (stereo not given) + Cc1cccc(N(C)C(=O)C2C(O)CCN2c2nc(C)cc(C(F)(F)F)c2C#N)c1	viability, T/C	%	87.8
COc1cccc2c1C(=O)c1c(O)c3c(c(O)c1C2=O)CC(O)(C(=O)CO)CC3OC1CC(N)C(O)C(C)O1 (stereo not given) + COC1C(OC(N)=O)C(O)C(Oc2ccc3c(O)c(NC(=O)c4ccc(O)c(CC=C(C)C)c4)c(=O)oc3c2C)OC1(C)C	viability, T/C	%	68.7
CC1COCCN1c1cc(C2(S(C)(=N)=O)CC2)nc(-c2ccnc3[nH]ccc23)n1 (stereo not given) + Nc1ccc(C#CCN(C(=O)Cc2ncc(C(F)(F)F)cc2C(F)(F)F)c2ccc(F)cc2)nn1	viability, T/C	%	82
CCCS(=O)(=O)Nc1ccc(F)c(C(=O)c2c[nH]c3ncc(-c4ccc(Cl)cc4)cc23)c1F + COC1C(OC(N)=O)C(O)C(Oc2ccc3c(O)c(NC(=O)c4ccc(O)c(CC=C(C)C)c4)c(=O)oc3c2C)OC1(C)C	viability, T/C	%	108
CCc1cc2c(N3CCc4c(cc(Cn5ccnc5)cc4-c4cn(C)nc4C(F)(F)F)C3=O)cc(C)nc2c(OC)n1 + Cc1cccc(N(C)C(=O)C2C(O)CCN2c2nc(C)cc(C(F)(F)F)c2C#N)c1	viability, T/C	%	132

Values from PubChem BioAssay AID1963831
